Readings of relative viability for the listed compounds
# Test system: HCC-827
# Assay explanation: relative viability (nuclei count vs DMSO), 5 days (fraction); higher = more cells survive
# Condition summary: first compound 0.2 µM
Lab note: write the figure by itself, no unit.

>>> endpoint_value("Cc1csc(=NC2CCCCC2)n1/N=C/c1ccc(O)c(O)c1O [MIM1] + Nc1ncn([C@H]2C[C@H](O)[C@@H](CO)O2)c(=O)n1 [Decitabine] (partner 2 µM)")
0.331
>>> endpoint_value("CCNC(=O)c1noc(-c2cc(C(C)C)c(O)cc2O)c1-c1ccc(CN2CCOCC2)cc1 [Luminespib] + NC(=O)Nc1cc(-c2cccc(F)c2)sc1C(=O)N[C@H]1CCCNC1 [AZD7762] (partner 0.2 µM)")
0.0952
>>> endpoint_value("CN1CCN(CCOc2cc(OC3CCOCC3)c3c(Nc4c(Cl)ccc5c4OCO5)ncnc3c2)CC1 [Saracatinib] + CS(=O)(=O)N1CCN(Cc2cc3nc(-c4cccc5[nH]ncc45)nc(N4CCOCC4)c3s2)CC1 [Pictilisib] (partner 1 µM)")
0.499
>>> endpoint_value("CN1CCN(CCOc2cc(OC3CCOCC3)c3c(Nc4c(Cl)ccc5c4OCO5)ncnc3c2)CC1 [Saracatinib] + CC(=O)c1c(C)c2cnc(Nc3ccc(N4CCNCC4)cn3)nc2n(C2CCCC2)c1=O [Palbociclib] (partner 0.5 µM)")
0.314
>>> endpoint_value("Cc1csc(=NC2CCCCC2)n1/N=C/c1ccc(O)c(O)c1O [MIM1] + Nc1nc2[nH]cc(CCc3ccc(C(=O)N[C@@H](CCC(=O)O)C(=O)O)cc3)c2c(=O)[nH]1 [Pemetrexed] (partner 0.2 µM)")
0.275
>>> endpoint_value("Cc1csc(=NC2CCCCC2)n1/N=C/c1ccc(O)c(O)c1O [MIM1] + NC(=O)Nc1cc(-c2cccc(F)c2)sc1C(=O)N[C@H]1CCCNC1 [AZD7762] (partner 0.2 µM)")
0.245

Lab note: measured relative viability of CCNC(=O)c1noc(-c2cc(C(C)C)c(O)cc2O)c1-c1ccc(CN2CCOCC2)cc1 [Luminespib] + CS(=O)(=O)N1CCN(Cc2cc3nc(-c4cccc5[nH]ncc45)nc(N4CCOCC4)c3s2)CC1 [Pictilisib] (partner 1 µM) was 0.551

Lab note: measured relative viability of Cc1csc(=NC2CCCCC2)n1/N=C/c1ccc(O)c(O)c1O [MIM1] + CC(=O)Nc1cccc(-n2c(=O)n(C3CC3)c(=O)c3c(Nc4ccc(I)cc4F)n(C)c(=O)c(C)c32)c1 [Trametinib] (partner 0.02 µM) was 0.501

Lab note: measured relative viability of CCNC(=O)c1noc(-c2cc(C(C)C)c(O)cc2O)c1-c1ccc(CN2CCOCC2)cc1 [Luminespib] + C[C@]1(O)C[C@@H](c2nc(-c3ccc4ccc(-c5ccccc5)nc4c3)c3c(N)nccn32)C1 [Linsitinib] (partner 1 µM) was 1.02

====

Readings of relative viability for the listed molecules
# Tested on: IA-LM
# Assay explanation: relative viability (nuclei count vs DMSO), 5 days (fraction); higher = more cells survive
# Condition summary: first compound 0.001 µM
Lab note: write the figure by itself, no unit.

>>> endpoint_value("Cc1cn(-c2cc(NC(=O)c3ccc(C)c(Nc4nccc(-c5cccnc5)n4)c3)cc(C(F)(F)F)c2)cn1 [Nilotinib] + CC1(C)CCC(c2ccc(Cl)cc2)=C(CN2CCN(c3ccc(C(=O)NS(=O)(=O)c4ccc(N[C@H](CCN5CCOCC5)CSc5ccccc5)c(S(=O)(=O)C(F)(F)F)c4)cc3)CC2)C1 [Navitoclax] (partner 0.5 µM)")
0.499
>>> endpoint_value("Cc1cn(-c2cc(NC(=O)c3ccc(C)c(Nc4nccc(-c5cccnc5)n4)c3)cc(C(F)(F)F)c2)cn1 [Nilotinib] + C[C@]1(O)C[C@@H](c2nc(-c3ccc4ccc(-c5ccccc5)nc4c3)c3c(N)nccn32)C1 [Linsitinib] (partner 1 µM)")
0.382

Lab note: measured relative viability of Cc1cn(-c2cc(NC(=O)c3ccc(C)c(Nc4nccc(-c5cccnc5)n4)c3)cc(C(F)(F)F)c2)cn1 [Nilotinib] + CS(=O)(=O)N1CCN(Cc2cc3nc(-c4cccc5[nH]ncc45)nc(N4CCOCC4)c3s2)CC1 [Pictilisib] (partner 1 µM) was 0.36

Lab note: measured relative viability of Cc1cn(-c2cc(NC(=O)c3ccc(C)c(Nc4nccc(-c5cccnc5)n4)c3)cc(C(F)(F)F)c2)cn1 [Nilotinib] + COc1cc2c(Oc3ccc(NC(=O)C4(C(=O)Nc5ccc(F)cc5)CC4)cc3F)ccnc2cc1OCCCN1CCOCC1 [Foretinib] (partner 0.25 µM) was 1.14

====

# Tested on: RERF-LC-KJ
# Assay explanation: relative viability (nuclei count vs DMSO), 5 days (fraction); higher = more cells survive
# Condition summary: first compound 0.2 µM
Endpoint label: relative viability
Lab note: write the figure by itself, no unit.

Lab note: measured relative viability of Cc1csc(=NC2CCCCC2)n1/N=C/c1ccc(O)c(O)c1O [MIM1] + CC(=O)Nc1cccc(-n2c(=O)n(C3CC3)c(=O)c3c(Nc4ccc(I)cc4F)n(C)c(=O)c(C)c32)c1 [Trametinib] (partner 0.02 µM) was 0.832

====

# System: LOU-NH91
# Assay explanation: relative viability (nuclei count vs DMSO), 5 days (fraction); higher = more cells survive
# Condition summary: first compound 8 µM
One threshold, 0.5, splits the recorded relative viability values: lower ones are rule met, equal or higher ones are rule not met.

Example entries and their recorded answers appear below.
>>> group_label("Nc1cccc2c1CN(C1CCC(=O)NC1=O)C2=O (stereo unspecified) [Lenalidomide] + NC(=O)Nc1cc(-c2cccc(F)c2)sc1C(=O)N[C@H]1CCCNC1 [AZD7762] (partner 0.2 µM)")
"rule not met"
>>> group_label("Nc1cccc2c1CN(C1CCC(=O)NC1=O)C2=O (stereo unspecified) [Lenalidomide] + CCNC(=O)c1noc(-c2cc(C(C)C)c(O)cc2O)c1-c1ccc(CN2CCOCC2)cc1 [Luminespib] (partner 0.01 µM)")
"rule met"
>>> group_label("Nc1cccc2c1CN(C1CCC(=O)NC1=O)C2=O (stereo unspecified) [Lenalidomide] + COc1cc2c(Oc3ccc(NC(=O)C4(C(=O)Nc5ccc(F)cc5)CC4)cc3F)ccnc2cc1OCCCN1CCOCC1 [Foretinib] (partner 0.25 µM)")
"rule not met"

Q: Item Nc1cccc2c1CN(C1CCC(=O)NC1=O)C2=O (stereo unspecified) [Lenalidomide] + C[C@@H](Oc1cc(-c2cnn(C3CCNCC3)c2)cnc1N)c1c(Cl)ccc(F)c1Cl [Crizotinib] (partner 1 µM) : relative viability beneath 0.5, strictly?
Result: rule not met

Q: Item Nc1cccc2c1CN(C1CCC(=O)NC1=O)C2=O (stereo unspecified) [Lenalidomide] + Cc1nc(Nc2ncc(C(=O)Nc3c(C)cccc3Cl)s2)cc(N2CCN(CCO)CC2)n1 [Dasatinib] (partner 0.075 µM) : relative viability beneath 0.5, strictly?
Result: rule met

====

Readings of relative viability for the listed compounds
# System: SW 900
# Assay explanation: relative viability (nuclei count vs DMSO), 5 days (fraction); higher = more cells survive
# Condition summary: first compound 0.1 µM
Lab note: write the figure by itself, no unit.

>>> endpoint_value("Cc1cn(-c2cc(NC(=O)c3ccc(C)c(Nc4nccc(-c5cccnc5)n4)c3)cc(C(F)(F)F)c2)cn1 [Nilotinib] + COc1cc2c(Oc3ccc(NC(=O)C4(C(=O)Nc5ccc(F)cc5)CC4)cc3F)ccnc2cc1OCCCN1CCOCC1 [Foretinib] (partner 0.25 µM)")
0.902
>>> endpoint_value("Cc1cn(-c2cc(NC(=O)c3ccc(C)c(Nc4nccc(-c5cccnc5)n4)c3)cc(C(F)(F)F)c2)cn1 [Nilotinib] + N=C(N)NC(=N)NCCc1ccccc1 [Phenformin] (partner 250 µM)")
0.408
>>> endpoint_value("Cc1cn(-c2cc(NC(=O)c3ccc(C)c(Nc4nccc(-c5cccnc5)n4)c3)cc(C(F)(F)F)c2)cn1 [Nilotinib] + O=C(c1cc(Cc2n[nH]c(=O)c3ccccc23)ccc1F)N1CCN(C(=O)C2CC2)CC1 [Olaparib] (partner 8 µM)")
0.776

Now for a further compound.
Lab note: measured relative viability of Cc1cn(-c2cc(NC(=O)c3ccc(C)c(Nc4nccc(-c5cccnc5)n4)c3)cc(C(F)(F)F)c2)cn1 [Nilotinib] + Nc1nc2[nH]cc(CCc3ccc(C(=O)N[C@@H](CCC(=O)O)C(=O)O)cc3)c2c(=O)[nH]1 [Pemetrexed] (partner 0.2 µM) was 0.245

====

# System: EKVX
# Assay explanation: relative viability (nuclei count vs DMSO), 5 days (fraction); higher = more cells survive
# Condition summary: first compound 0.8 µM
Endpoint label: relative viability
Lab note: write the figure by itself, no unit.

With EKVX as the test system, Nc1cccc2c1CN(C1CCC(=O)NC1=O)C2=O (centres undefined) [Lenalidomide] + Nc1ncn([C@H]2C[C@H](O)[C@@H](CO)O2)c(=O)n1 [Decitabine] (partner 2 µM) showed relative viability of 0.4

With EKVX as the test system, Nc1cccc2c1CN(C1CCC(=O)NC1=O)C2=O (centres undefined) [Lenalidomide] + COc1cc2c(Oc3ccc(NC(=O)C4(C(=O)Nc5ccc(F)cc5)CC4)cc3F)ccnc2cc1OCCCN1CCOCC1 [Foretinib] (partner 0.25 µM) showed relative viability of 0.772

With EKVX as the test system, Nc1cccc2c1CN(C1CCC(=O)NC1=O)C2=O (centres undefined) [Lenalidomide] + COc1cccc2cc(-c3nc([C@H]4CC[C@H](C(=O)O)CC4)n4ncnc(N)c34)[nH]c12 [OSI-027] (partner 0.5 µM) showed relative viability of 0.734

With EKVX as the test system, Nc1cccc2c1CN(C1CCC(=O)NC1=O)C2=O (centres undefined) [Lenalidomide] + CC1(C)CCC(c2ccc(Cl)cc2)=C(CN2CCN(c3ccc(C(=O)NS(=O)(=O)c4ccc(N[C@H](CCN5CCOCC5)CSc5ccccc5)c(S(=O)(=O)C(F)(F)F)c4)cc3)CC2)C1 [Navitoclax] (partner 0.5 µM) showed relative viability of 0.855
